Give chromatographic logD for every item shown.
assay: Lipophilicity, log D of the compound at pH 7.4 by reversed phase HPLC method; type: physicochemical; conditions: buffer

COMPOUND	chromatographic logD
CCN(CC)CCN(Cc1ccc(-c2ccc(C(F)(F)F)cc2)cc1)C(=O)Cn1c(SCc2ccc(F)cc2)nc(=O)c2c1CCC2 [DARAPLADIB]	6.2
COC(CO)Cc1csc(Nc2cc(-c3ccccc3C)c(C)cc2OCCN)n1 (racemic)	3.4

Here is the next item to consider.
Can you look up the measured chromatographic logD of COC(CO)Cn1ccc(Nc2cc(-c3ccccc3C)c(C)cc2OCCN)n1 (racemic) for me?
3.2

###

Target: Platelet-activating factor acetylhydrolase (Homo sapiens, UniProt Q13093)
Sequence (Q13093 whole entry): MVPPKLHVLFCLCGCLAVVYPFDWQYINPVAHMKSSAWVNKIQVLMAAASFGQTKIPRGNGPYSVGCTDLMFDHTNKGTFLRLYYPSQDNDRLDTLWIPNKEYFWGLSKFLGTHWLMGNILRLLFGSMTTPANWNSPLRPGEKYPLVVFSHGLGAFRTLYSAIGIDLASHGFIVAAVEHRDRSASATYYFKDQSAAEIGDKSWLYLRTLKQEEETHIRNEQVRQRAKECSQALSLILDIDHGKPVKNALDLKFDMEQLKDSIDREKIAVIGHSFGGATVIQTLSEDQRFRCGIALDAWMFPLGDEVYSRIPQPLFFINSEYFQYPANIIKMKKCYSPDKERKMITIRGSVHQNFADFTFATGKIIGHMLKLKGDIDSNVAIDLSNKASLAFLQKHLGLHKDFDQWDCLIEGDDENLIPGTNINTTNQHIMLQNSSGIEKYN
Experiment: Inhibition of Lp-PLA2 in human whole plasma using 2-thio-PAF as substrate preincubated for 15 mins followed by substrate addition measured after 3 mins by CPM-based fluorescence assay
Format: cell-free
Task for the reader: assign each of the following compounds its reported log10 of IC50.
Response schema: value (number) is log10 of IC50 in units of nM.

Consider the worked cases shown below.
COMPOUND	ASSAY_TARGET	log10 of IC50
COC(CO)Cn1ccc(Nc2cc(-c3ccccc3C)c(C)cc2OCCN)n1 (racemic)	Platelet-activating factor acetylhydrolase (Homo sapiens, UniProt Q13093)	1.26
COC(CO)Cc1csc(Nc2cc(-c3ccccc3C)c(C)cc2OCCN)n1 (racemic)	Platelet-activating factor acetylhydrolase (Homo sapiens, UniProt Q13093)	1.45
COC(CO)Cc1csc(Nc2ccc(C)c(-c3ccccc3C)c2)n1 (racemic)	Platelet-activating factor acetylhydrolase (Homo sapiens, UniProt Q13093)	2.75
Cc1ccccc1-c1cc(Nc2nc(CCCO)cs2)ccc1C	Platelet-activating factor acetylhydrolase (Homo sapiens, UniProt Q13093)	3.85

Query the reported log10 of IC50 for Platelet-activating factor acetylhydrolase (Homo sapiens, UniProt Q13093); item: COc1cc(C)c(-c2ccccc2C)cc1Nc1nc(CC(CO)OC)cs1 (racemic)
2.51

###

assay: Apparent permeability of the compound after 3 hrs by HPLC-UV method; type: physicochemical; conditions: not told
Exercise: for every item that follows, state its recorded Papp at 3 h.
Answers are plain numbers, in ×10⁻⁶ cm/s.

COMPOUND	Papp at 3 h, ×10⁻⁶ cm/s
CCN(CC)CCN(Cc1ccc(-c2ccc(C(F)(F)F)cc2)cc1)C(=O)Cn1c(SCc2ccc(F)cc2)nc(=O)c2c1CCC2 [DARAPLADIB]	23
COC(CO)Cc1csc(Nc2cc(-c3ccccc3C)c(C)cc2OCCN)n1 (racemic)	21

We now examine a further compound.
Item under review: COC(CO)Cn1ccc(Nc2cc(-c3ccccc3C)c(C)cc2OCCN)n1 (racemic) . Reported Papp at 3 h?
13

###

molecular target: Platelet-activating factor acetylhydrolase (Homo sapiens); experiment: Inhibition of human recombinant Lp-PLA2 using PED6 as substrate preincubated for 30 mins followed by substrate addition measured for 20 mins by fluorescence assay
Please go through the items and note down their IC50.
Numbers only, in µM.

STRUCTURE_SMILES	ASSAY_TARGET	IC50, µM
Cc1ccc(N)cc1-c1ccccc1Cl	Platelet-activating factor acetylhydrolase (Homo sapiens)	100
O=C(c1cccc(F)c1)N1CC=CC1	Platelet-activating factor acetylhydrolase (Homo sapiens)	500

I'd like to know its IC50. The compound in question is CC(C)COc1cc(=O)n(C)c(=O)n1C
1000

###

Target: Platelet-activating factor acetylhydrolase (Homo sapiens, UniProt Q13093)
Sequence (Q13093 whole entry): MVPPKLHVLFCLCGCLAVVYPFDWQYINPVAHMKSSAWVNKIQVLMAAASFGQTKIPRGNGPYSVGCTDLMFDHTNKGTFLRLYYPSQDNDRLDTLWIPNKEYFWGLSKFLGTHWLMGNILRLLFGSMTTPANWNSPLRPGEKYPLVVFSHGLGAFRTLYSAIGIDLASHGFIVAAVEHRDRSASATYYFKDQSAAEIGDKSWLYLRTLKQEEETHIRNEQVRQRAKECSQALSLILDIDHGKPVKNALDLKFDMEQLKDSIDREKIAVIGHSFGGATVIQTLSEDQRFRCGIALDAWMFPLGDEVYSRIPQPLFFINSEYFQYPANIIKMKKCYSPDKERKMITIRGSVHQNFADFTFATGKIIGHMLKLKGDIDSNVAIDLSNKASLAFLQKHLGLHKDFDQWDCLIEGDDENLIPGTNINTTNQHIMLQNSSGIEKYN
Assay: Inhibition of human recombinant Lp-PLA2 using 2-thio-PAF as substrate after 20 mins by CPM-based fluorescence assay
ASSAY_ENDPOINT: IC50 (µM)
Numbers only, in µM.

Use these answered entries as a reference point.
COMPOUND	IC50 / µM
COC(CO)Cc1csc(Nc2ccc(C)c(-c3ccccc3C)c2)n1 (racemic)	0.0095
Cc1ccccc1-c1cc(Nc2nccs2)ccc1C	1.7
Cc1ccc(N)cc1-c1ccccc1Cl	100
Cc1ccccc1-c1cc(Nc2nc(CCCO)cs2)ccc1C	0.23
Cc1ccc(C(=O)N2CC=CC2)cc1-c1ccccc1Cl	0.18

Please report IC50 for every entry that follows.
1. COC(CO)Cc1csc(Nc2cc(-c3ccccc3C)c(C)cc2OCCN)n1 (racemic)
2. COC(CO)Cn1ccc(Nc2cc(-c3ccccc3C)c(C)cc2OCCN)n1 (racemic)
3. COc1cc(C)c(-c2ccccc2C)cc1Nc1nc(CC(CO)OC)cs1 (racemic)
4. Cc1ccccc1-c1cc(C(=O)c2nccs2)ccc1C
5. Cc1ccccc1-c1cc(C(=O)N2CCCC2)ccc1C

1: 0.0024; 2: 0.0014; 3: 0.0036; 4: 2; 5: 30

Request the reported IC50 associated with Cc1ccccc1-c1cc(C(=O)N2CC=CC2)ccc1C
0.23

###

Can you tell me fraction unbound at 0.1 h for the items I'm about to list?
experiment: Binding affinity to human serum albumin/alpha-1 acidglycoprotein after 6 mins by HPLC method; format: ADME; conditions: human serum albumin/alpha-1 acid glycoprotein, read-out: PB (converted)
Give bare numbers.

Reference set (2 entries):
COMPOUND	ASSAY_ENDPOINT	NUMERIC_VALUE
COC(CO)Cc1csc(Nc2cc(-c3ccccc3C)c(C)cc2OCCN)n1 (racemic)	fraction unbound at 0.1 h	0.03
COC(CO)Cn1ccc(Nc2cc(-c3ccccc3C)c(C)cc2OCCN)n1 (racemic)	fraction unbound at 0.1 h	0.05

What value of measured fraction unbound at 0.1 h is listed for CCN(CC)CCN(Cc1ccc(-c2ccc(C(F)(F)F)cc2)cc1)C(=O)Cn1c(SCc2ccc(F)cc2)nc(=O)c2c1CCC2 ?
0.02

###

test: Solubility of the compound in pH 7.4 phosphate buffered saline after 1 hr by chemiluminescent nitrogen detection assay; assay type: physicochemical
For each entry below, report its solubility at 1 h value.
Give bare numbers, in µM.

Please review the entries below; each comes with its answer.
COMPOUND	solubility at 1 h (µM)
CCN(CC)CCN(Cc1ccc(-c2ccc(C(F)(F)F)cc2)cc1)C(=O)Cn1c(SCc2ccc(F)cc2)nc(=O)c2c1CCC2	8
COC(CO)Cn1ccc(Nc2cc(-c3ccccc3C)c(C)cc2OCCN)n1 (racemic)	302

Now for the compound whose solubility at 1 h we want.
Returns the measured solubility at 1 h for the input compound. Input: COC(CO)Cc1csc(Nc2cc(-c3ccccc3C)c(C)cc2OCCN)n1 (racemic)
195

###

So I've got a bunch of molecules here, and I need their Kd values.
Target: Platelet-activating factor acetylhydrolase (Homo sapiens, UniProt Q13093)
Sequence (Q13093 whole entry): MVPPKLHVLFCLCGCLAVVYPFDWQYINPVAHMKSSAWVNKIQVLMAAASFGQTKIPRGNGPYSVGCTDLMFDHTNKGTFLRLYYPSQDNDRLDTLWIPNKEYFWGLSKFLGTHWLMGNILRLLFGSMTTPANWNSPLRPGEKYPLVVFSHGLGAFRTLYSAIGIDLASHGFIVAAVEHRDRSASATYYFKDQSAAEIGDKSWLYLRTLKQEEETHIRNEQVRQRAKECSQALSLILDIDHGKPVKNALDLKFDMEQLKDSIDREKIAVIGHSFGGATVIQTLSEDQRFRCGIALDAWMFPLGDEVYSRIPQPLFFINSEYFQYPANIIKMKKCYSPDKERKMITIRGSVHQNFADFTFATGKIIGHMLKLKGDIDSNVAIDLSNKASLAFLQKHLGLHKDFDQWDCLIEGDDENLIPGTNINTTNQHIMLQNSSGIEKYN
# number then unit; no other words

MOLECULE	RESULT
O=C(c1cccc(F)c1)N1CC=CC1	980 µM

Next:
Could you tell me which Kd is on file for NS(=O)(=O)c1ccccc1 [BENZENESULFONAMIDE] ?
3400 µM
